- Tgt: UniProt Q9UL62
- Assay Overview: Inhibition of TRPC5 (unknown origin) transfected in HEK293/TREx cells assessed as reduction of rise in intracellular Ca2+ concentration after 60 to 80 mins by Fluo4 cell-based fluorescence assay
# pIC50 annotations
Hey, just a heads up that pIC50 is the negative log base 10 of the concentration in molar.

CC(C)Oc1ccc2c(c1Cc1ccc(F)cc1)c(=O)n(CCCO)c(=O)n2C
8.58

Consider now this further molecule.
Fill in reported pIC50 for this entry: Cn1c(=O)n(CCCO)c(=O)c2c(Cc3ccccc3)c(Oc3cccc(OC(F)(F)F)c3)ccc21
8.57

----------
- Tgt: Short transient receptor potential channel 5 (Homo sapiens, UniProt Q9UL62)
- Sequence (Q9UL62 whole entry): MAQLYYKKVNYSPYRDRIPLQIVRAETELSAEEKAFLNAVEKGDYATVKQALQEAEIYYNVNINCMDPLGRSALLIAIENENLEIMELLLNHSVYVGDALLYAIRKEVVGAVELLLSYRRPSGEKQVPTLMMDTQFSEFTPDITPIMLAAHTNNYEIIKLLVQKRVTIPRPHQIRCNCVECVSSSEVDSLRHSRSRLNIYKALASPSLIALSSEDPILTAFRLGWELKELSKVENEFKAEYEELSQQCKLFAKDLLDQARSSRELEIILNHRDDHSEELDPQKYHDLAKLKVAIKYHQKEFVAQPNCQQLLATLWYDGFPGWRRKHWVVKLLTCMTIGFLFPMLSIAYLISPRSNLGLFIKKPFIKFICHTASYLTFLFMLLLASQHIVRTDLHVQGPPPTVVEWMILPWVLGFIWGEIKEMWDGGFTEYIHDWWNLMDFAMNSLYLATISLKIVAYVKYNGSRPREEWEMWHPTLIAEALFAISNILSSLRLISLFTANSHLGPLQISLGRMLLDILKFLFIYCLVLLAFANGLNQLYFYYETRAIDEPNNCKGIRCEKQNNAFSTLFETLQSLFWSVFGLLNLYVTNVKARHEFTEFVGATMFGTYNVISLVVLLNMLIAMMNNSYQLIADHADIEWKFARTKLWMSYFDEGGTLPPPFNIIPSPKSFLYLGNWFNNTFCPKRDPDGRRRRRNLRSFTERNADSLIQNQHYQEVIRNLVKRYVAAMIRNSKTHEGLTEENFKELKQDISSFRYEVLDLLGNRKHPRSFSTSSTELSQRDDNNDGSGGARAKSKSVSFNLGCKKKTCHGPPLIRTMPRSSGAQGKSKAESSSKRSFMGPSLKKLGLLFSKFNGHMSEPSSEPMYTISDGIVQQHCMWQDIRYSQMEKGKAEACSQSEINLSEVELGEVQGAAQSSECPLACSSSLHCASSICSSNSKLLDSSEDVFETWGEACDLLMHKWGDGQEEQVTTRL
- Assay Overview: Inhibition of TRPC5 (unknown origin) transfected in HEK293/TREx cells assessed as blocking of inward/outward currents after 20 to 48 hrs in presence of LaCl3 by patch clamp assay
- Format: cell-based
# IC50 annotations
Answer in nM, number only, no unit symbol.

Past entries and their recorded results:
Cn1c(=O)n(CCCO)c(=O)c2c(Cc3ccccc3)c(-c3cccc(OC(F)(F)F)c3)ccc21
5.3
COc1ccc2c(c1Cc1ccc(F)cc1)c(=O)n(CCCO)c(=O)n2C
8.37
CC(C)Oc1ccc2c(c1Cc1ccc(F)cc1)c(=O)n(CCCO)c(=O)n2C
9

Fill in reported IC50 for this entry: COc1ccc2c(c1Cc1ccccc1)c(=O)n(CCCO)c(=O)n2C
23.3
